Tested on: male mice (Charles Rivers CD1)
Experiment: Learning and memorizing: anti-amnesiac effect on electric shock-induced retrograde amnesia (two-compartment luminous/dark box avoidance)
Assay type: in vivo
Details: 100 mg/kg per os, 3 hours after treatment; * = statistically different in comparison with controls
Field: Percentage increase in latency time in comparison with the controls. Provide a value for each of the molecules that follow.
The reply should be a number in %, with the unit left off.

Enquiry: Which Percentage increase in latency time in comparison with the controls is reported for this molecule? CCCCOC1C=CC(=O)N1S(=O)(=O)c1ccccc1 (stereo not shown) [Example 4]
Return: 96

Enquiry: Proceed to CCCCCOC1C=CC(=O)N1S(=O)(=O)c1ccccc1 (stereo not shown) [Example 6]
Return: 92

Enquiry: Proceed to CCCCOC1C=CC(=O)N1S(=O)(=O)c1cccc(C(F)(F)F)c1 (stereo not shown) [Example 12]
Return: 75

Enquiry: Proceed to NC(=O)CN1CCCC1=O [PIRACETAM, reference compound]
Return: 48
